Cited source for all entries: patent US10517867B2

Could you please report measured Amount of active fungi in cornea at day 7 for the items listed next?
- Tested on: Aspergillus Fumigutus (AF) strains
- assay.method.text: Aspergillus fumigatus keratitis in rats, intravenous administration
- condition.context: 10 mg/kg tail vein once daily for 5 days; mean ± SD of 10 rats

CC[C@@H]([C@H](C)O)n1ncn(-c2ccc(N3CCN(c4ccc(OC[C@@H]5CO[C@@](Cn6c[n+](C(C)OC(=O)N(C)c7ccccc7COC(=O)[C@@H](N)CCCN)cn6)(c6ccc(F)cc6F)C5)cc4)CC3)cc2)c1=O (some centres unmarked) :: 2.59 ± 0.37 10^3 CFU/ml

Now examine the next entry.
What value of Amount of active fungi in cornea at day 7 has been reported for the following compound? CC[C@@H]([C@H](C)O)n1ncn(-c2ccc(N3CCN(c4ccc(OC[C@@H]5CO[C@@](Cn6c[n+](C(C)OC(=O)N(C)c7ncccc7COC(=O)[C@@H](N)CCCN)cn6)(c6ccc(F)cc6F)C5)cc4)CC3)cc2)c1=O (some centres unmarked) [ST0003]
1.48 ± 0.38 10^3 CFU/ml

====

Answer each item with its documented responders at 20 mg/kg.
- System: Candida albicans ATCC10231
- assay.method.text: Systemic fungal infection in mice, intragastric administration
- Type: in vivo, ICR mice
- condition.context: Candida albicans, ATCC10231, po, 48 h, read-out: survival rate of mice, day 2, 20 mg/kg intragastric once daily for 5 days; day 2
Answers are plain numbers, in %.

Known results for compounds:
CC[C@@H]([C@H](C)O)n1ncn(-c2ccc(N3CCN(c4ccc(OC[C@@H]5CO[C@@](Cn6c[n+](C(C)OC(=O)N(C)c7ncccc7COC(=O)[C@@H](N)CC(N)=O)cn6)(c6ccc(F)cc6F)C5)cc4)CC3)cc2)c1=O (stereo partly shown) :: 100
CC[C@@H](C(C)OC(=O)OC(C)OC(=O)CCCCCCOP(=O)([O-])[O-])n1ncn(-c2ccc(N3CCN(c4ccc(OC[C@@H]5CO[C@@](Cn6cncn6)(c6ccc(F)cc6F)C5)cc4)CC3)cc2)c1=O.[Na+].[Na+] (stereo partly shown) :: 90
CC[C@@H](C(C)OC(=O)OC(C)OC(=O)CCOP(=O)([O-])[O-])n1ncn(-c2ccc(N3CCN(c4ccc(OC[C@@H]5CO[C@@](Cn6cncn6)(c6ccc(F)cc6F)C5)cc4)CC3)cc2)c1=O.[Na+].[Na+] (stereo partly shown) :: 80
CC[C@@H]([C@H](C)O)n1ncn(-c2ccc(N3CCN(c4ccc(OC[C@@H]5CO[C@@](Cn6c[n+](C(C)OC(=O)N(C)c7ncccc7COC(=O)[C@@H](N)[C@@H](C)O)cn6)(c6ccc(F)cc6F)C5)cc4)CC3)cc2)c1=O (stereo partly shown) :: 100
CC[C@@H]([C@H](C)O)n1ncn(-c2ccc(N3CCN(c4ccc(OC[C@@H]5CO[C@@](Cn6c[n+](C(C)OC(=O)N(C)c7ncccc7COC(=O)[C@@H](N)CCCN)cn6)(c6ccc(F)cc6F)C5)cc4)CC3)cc2)c1=O (stereo partly shown) :: 100
CC[C@@H]([C@H](C)O)n1ncn(-c2ccc(N3CCN(c4ccc(OC[C@@H]5CO[C@@](Cn6c[n+](C(C)OC(=O)N(C)c7ncccc7COC(=O)[C@@H](N)CO)cn6)(c6ccc(F)cc6F)C5)cc4)CC3)cc2)c1=O (stereo partly shown) :: 100

State the recorded responders at 20 mg/kg for every item in the following list.
1. CC[C@@H]([C@H](C)O)n1ncn(-c2ccc(N3CCN(c4ccc(OC[C@@H]5CO[C@@](Cn6c[n+](C(C)OC(=O)N(C)c7ncccc7COC(=O)[C@@H](N)CCC(N)=O)cn6)(c6ccc(F)cc6F)C5)cc4)CC3)cc2)c1=O (stereo partly shown)
2. CC[C@@H]([C@H](C)O)n1ncn(-c2ccc(N3CCN(c4ccc(OC[C@@H]5CO[C@@](Cn6c[n+](C(C)OC(=O)N(C)c7ncccc7COC(=O)[C@@H](N)CCN)cn6)(c6ccc(F)cc6F)C5)cc4)CC3)cc2)c1=O (stereo partly shown)
3. CC[C@@H]([C@H](C)O)n1ncn(-c2ccc(N3CCN(c4ccc(OC[C@@H]5CO[C@@](Cn6c[n+](C(C)OC(=O)N(C)c7ncccc7COC(=O)[C@@H](N)CCCNC(N)=O)cn6)(c6ccc(F)cc6F)C5)cc4)CC3)cc2)c1=O (stereo partly shown)
4. CC[C@@H]([C@H](C)O)n1ncn(-c2ccc(N3CCN(c4ccc(OC[C@@H]5CO[C@@](Cn6c[n+](C(C)OC(=O)N(C)c7ncccc7COC(=O)CN)cn6)(c6ccc(F)cc6F)C5)cc4)CC3)cc2)c1=O (stereo partly shown)

100
100
100
100
